B1: eukaryotic translation factor 5A-1 (eIF5A-1), residues 15-151 [human] / deoxyhypusine synthase, wild type, His-tagged [human] (parent complex)
chain 1: not shown
chain 2: MEGSLEREAPAGALAAVLKHSSTLPPESTQVRGYDFNRGVNYRALLEAFGTTGFQATNFGRAVQQVNAMIEKKLEPLSQDEDQHADLTQSRRPLTSCTIFLGYTSNLISSGIRETIRYLVQHNMVDVLVTTAGGVEEDLIKCLAPTYLGEFSLRGKELRENGINRIGNLLVPNENYCKFEDWLMPILDQMVMEQNTEGVKWTPSKMIARLGKEINNPESVYYWAQKNHIPVFSPALTDGSLGDMIFFHSYKNPGLVLDIVEDLRLINTQAIFAKCTGMIILGGGVVKHHIANANLMRNGADYAVYINTAQEFDGSDSGARPDEAVSWGKIRVDAQPVKVYADASLVFPLLVAETFAQKMDAFMHEKNED

Variants of: B1
Assay: MST; read off a plot
pEC50: −log10 of the molar value.
Reported pEC50 values follow for various variants
assay.readout: pEC50

>>> df
   residue_change  assay_readout  value_measured
0   chain 2 N173A          pEC50           ~4.89
1   chain 2 M244A          pEC50           ~4.92
2   chain 2 Y250A          pEC50           ~4.35
3   chain 2 L295A          pEC50           ~6.52
4   chain 2 F272A          pEC50           ~6.40
5   chain 2 Y176A          pEC50           ~6.15
6   chain 2 S240A          pEC50           ~5.70
7    chain 2 Q83A          pEC50           ~5.15
8   chain 2 I271A          pEC50           ~7.30
